The reported measurements were obtained from patent US8426429B2.

Experimental system: β-secretase (BACE) (Homo sapiens)
Construct: purchased Panvera
Sequence (P56817 46-501): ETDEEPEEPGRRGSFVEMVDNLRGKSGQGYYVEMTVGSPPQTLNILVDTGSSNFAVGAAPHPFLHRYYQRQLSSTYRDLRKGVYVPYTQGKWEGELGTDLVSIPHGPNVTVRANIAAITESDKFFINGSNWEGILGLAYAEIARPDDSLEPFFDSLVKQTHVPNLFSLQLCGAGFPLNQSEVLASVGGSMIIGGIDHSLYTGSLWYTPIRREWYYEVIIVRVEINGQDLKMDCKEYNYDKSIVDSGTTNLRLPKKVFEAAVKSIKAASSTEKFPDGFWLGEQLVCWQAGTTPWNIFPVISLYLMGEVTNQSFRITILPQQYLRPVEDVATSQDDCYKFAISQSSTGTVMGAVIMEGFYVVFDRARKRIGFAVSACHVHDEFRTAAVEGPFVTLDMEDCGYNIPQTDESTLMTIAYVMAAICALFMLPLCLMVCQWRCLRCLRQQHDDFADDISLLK
Experiment description: BACE FS1 % Inhibition Assay
Type: biochemical
Conditions used: 0.3 μM compound; FS1 substrate
Procedure: The following reagents were used in this assay: sodium acetate, PEG8000 (Sigma), DMSO, HEPES, FS1 substrate [[…]] […] The FS1-substrate stock solution was prepared in DMSO as a 10 mg/mL solution. The FS1-substrate working solution was prepared by diluting the 10 mg/mL stock solution with substrate assay buffer to a final concentration of 300 μg/mL. […] For test compounds, % inhibition was determined at each concentration as follows: [formula]
Please go through the items and note down their % Inhibition (FS).
One number for each entry, in %.

For orientation, consider the following solved cases.
[
  {
    "Compound": "CCCCC(CC)C(=O)NCCN1Cc2cc(-c3cnc4ccccc4c3)ccc2N=C1N (centres unmarked)",
    "Experimental system": "β-secretase (BACE) (Homo sapiens)",
    "% Inhibition (FS) / %": 33
  },
  {
    "Compound": "NC1=Nc2ccc(-c3ccccc3)cc2CN1CCNC(=O)CCC(F)(F)F",
    "Experimental system": "β-secretase (BACE) (Homo sapiens)",
    "% Inhibition (FS) / %": 33
  },
  {
    "Compound": "COc1ccccc1-c1ccc2c(c1)CN([C@@H](CCC(=O)N(C)Cc1cnn(-c3ccccc3)c1)C1CCCCC1)C(N)=N2",
    "Experimental system": "β-secretase (BACE) (Homo sapiens)",
    "% Inhibition (FS) / %": 33
  },
  {
    "Compound": "NC1=Nc2ccc(-c3ccccc3Cl)cc2CN1CCNC(=O)CCC(F)(F)F",
    "Experimental system": "β-secretase (BACE) (Homo sapiens)",
    "% Inhibition (FS) / %": 39
  },
  {
    "Compound": "Cc1ccccc1-c1ccc2c(c1)CN(CCNC(=O)CCC(C)C)C(N)=N2",
    "Experimental system": "β-secretase (BACE) (Homo sapiens)",
    "% Inhibition (FS) / %": 68
  }
]

Enquiry: Identify the reported % Inhibition (FS) for the following entry. Cc1ccccc1-c1ccc2c(c1)CN(CCNC(=O)CCC(F)(F)F)C(N)=N2
Return: 51
